- experimental.system: T1, DDX21ΔNC (human, UniProt Q9NR30 186-710)
- T1 sequence: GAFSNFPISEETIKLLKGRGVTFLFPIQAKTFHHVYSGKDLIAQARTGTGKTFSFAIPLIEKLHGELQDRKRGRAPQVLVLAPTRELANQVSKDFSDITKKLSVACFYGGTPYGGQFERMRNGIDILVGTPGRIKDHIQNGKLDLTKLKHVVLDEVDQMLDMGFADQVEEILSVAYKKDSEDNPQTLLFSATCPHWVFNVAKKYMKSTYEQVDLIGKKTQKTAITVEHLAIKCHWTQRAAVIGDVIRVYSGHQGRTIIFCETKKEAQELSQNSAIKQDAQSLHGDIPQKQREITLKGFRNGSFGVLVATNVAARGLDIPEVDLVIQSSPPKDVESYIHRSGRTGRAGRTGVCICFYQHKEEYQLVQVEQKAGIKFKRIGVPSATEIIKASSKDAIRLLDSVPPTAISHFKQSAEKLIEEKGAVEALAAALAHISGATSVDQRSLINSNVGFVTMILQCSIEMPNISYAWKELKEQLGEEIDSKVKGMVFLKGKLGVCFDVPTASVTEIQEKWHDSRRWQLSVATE
- procedure.summary: fluorescence polarization; FP: 50 mM Tris pH 7.5, 50 mM KCl, 5 mM MgCl2, no ATP; Hill-slope fit; temperature not given in the material
- condition.label: protein: recombinant; chain copies: 2; label: 5'-FAM; single strand
property: pKd
To interpret pKd, take it as minus log10 of a concentration measured in moles per litre.

*Q* What value of measured pKd is listed for GUUUCGGAUCGACGC (ssRNA) [15-mer ssRNA] ?
*A* 6.16
